# Subject Of Test: T1, nmAb-KT (neutralizing monoclonal antibody against HM-1 killer toxin)
# T1 construct: also called nmb-KT; HM-1 neutralizing monoclonal antibody
# Experiment Summary: SPR (BIAcore X), nmAb-KT immobilised on CM5 chip, ScFv 15.75-250 nM as analyte, 25 C, HBS-EP
Measured Quantity: kon (M⁻¹ s⁻¹)
Output spec: scalar in M⁻¹ s⁻¹, unitless text.

INSERT INTO measurements (binder, unit_info, meas_value) VALUES
  ('ScFv-A2 (scFv, V domains shown, Mouse anti-idiotypic single chain Fv, VH-(Gly4Ser)3 linker-VL, with a C-terminal E-Tag; also called ScFv KTIdAb; anti-idiotypic ScFv) VH: QVKLQQSGAELMKPGASVKISCKATGYTFSSYWIEWVKQRPGHGLEWIGEILPGSGSTNYNEKFKGKATFTADTSSNTAYMQLSSLTSEDSAVYYCARYYGNYYAMDYWGQGTTVTVSS', 'M⁻¹ s⁻¹', 305000);

Entry ScFv-A1 (scFv, also called ScFv-Al; ScFv KTIdAb) scFv: MAQVKLQQSGAELMKPGASVKISCKATGYTFSSYWIEWVKQRPGHGLEWIGEILPGSGSTNYNEKFKGKATFTADTSSNTAYMQLSSLTSEDSAVYYCARYYGNYYAMDYWGQGTTVTVSSGGGGSGGGGSGGGGSDIVLTQSPAIMSASPGEKVTITCSVSSSISSSNLHWYQQKSETSPKPWIYGTSNLASGVPGRFSGSGSGNSYSLTISSMEAEDVATYYCFQGSGYPLTFGSGTKLEIKRAAAGAPVPYPDPLEPR , kon reported as 243000

Entry ScFv-A4 (scFv, Mouse anti-idiotypic single chain Fv, VH-(Gly4Ser)3 linker-VL, with a C-terminal E-Tag; also called ScFv KTIdAb; anti-idiotypic ScFv) scFv: MAQVKLQQSGAELMKPGASVKISCKATGYTFSSYWIEWVKQRPGHGLEWIGEILPGSGSTNYNEKFKGKATFTADTSSNTAYMQLSSLTSEDSAVYYCARYYGNYYAMDYWGQGTTVTVSSGGGGSGGGGSGGGGSDIVLTQSPAIMSASPGEKSPSPAVSAQVYVPATCTGTSRSQKPPPNPGFMAHPTWLLESQVASVAVGLENSYSLTISSMEAEDVATYYCFQGSGYPLTFGSGTKLEIKRAAAGAPVPYPDPLEPR , kon reported as 224000

Entry ScFv-A3 (scFv, Mouse anti-idiotypic single chain Fv, VH-(Gly4Ser)3 linker-VL, with a C-terminal E-Tag; also called ScFv KTIdAb; anti-idiotypic ScFv) scFv: MAQVKLQQSGAELMKPGASVKISCKATGYTFSSYWIEWVKQRPGHGLEWIGEILPGSGSTNYNEKFKGKATFTADTSSNTAYMQLSSLTSEDSAVYYCARYYGNYYAMDYWGQGTTVTVSSGGGGSGGGGSGGGGSDIVLTQSPAIMSASPGEKVTITCSVSSSRSSSNLHWYQQKSETSPKPWIYGTSNLASGVPGRFSGSGSGKLLLSHDQQHEAEDVATYYCFQGSGYPLTFGSGTKLEIKRAAAGAPVPYPDPLEPR , kon reported as 229000

Just for reference, patent WO2007023782A1 is where these values come from.
